Assignment: determine reported Mutagenicity for the given molecules.
system: Salmonella typhimurium; assay: Mutagenicity determined by Ames assay in Salmonella Typhimurium strain TA98, without metabolic activation by Aroclor 1254 induced rat liver S9 at a dose of 0.5 ug/plate; type: functional, Salmonella enterica subsp. enterica serovar Typhimurium; set-up: unit: revertants/plate
One number for each entry.

| MOLECULE | Mutagenicity |
| --- | --- |
| C1=CC2OC2c2ccc3c4c5c(cccc5cc3c21)C=C4 (centres undefined) | 28 |
| C1=Cc2c3ccc4ccccc4c3cc3cccc1c23 [BENZO[J]ACEANTHRYLENE] | 35 |
| O[C@H]1c2ccc3c4c5c(cccc5cc3c2[C@@H]2OC2[C@@H]1O)C=C4 (some centres undefined) | 37 |

Consider the additional molecule presented here.
Query block: Supply recorded Mutagenicity for `O[C@H]1C=Cc2c(ccc3c4c5c(cccc5cc23)C=C4)[C@@H]1O` here.
Result block: 36
